Tested on: PC-3
Test: cells
Set-up: MTS cell viability / proliferation assay of PC-3 prostate cancer cells
Conditions: Homo sapiens, PC-3, 72 h; read-out: IC50 inhibiting PC-3
MEASURED ATTRIBUTE: IC50 (µM)

Below, 3 compounds whose answers are already recorded.
                            compound_string  observed_result
0  COc1ccc2nc(SCC(=O)Nc3cc(Cl)ccc3OC)c(C#N)cc2c1               10
1  COc1ccc2nc(SCC(=O)Nc3ccc(Cl)cc3Cl)c(C#N)cc2c1               10
2  COc1ccc(C)cc1NC(=O)CSc1nc2ccc(C)cc2cc1C#N               20

(a) COc1ccc2nc(SCC(=O)Nc3nccs3)c(C#N)cc2c1
(b) COc1ccc(C)cc1NC(=O)CSc1nc2ccc(Cl)cc2cc1C#N
[ask] Name the one with the greater IC50 value, either a or b as given. Refer to your chosen item by its label in the answer.
[reply] b

###

Test system: PC-3
Assay: cells
Set-up: MTS cell viability / proliferation assay of PC-3 prostate cancer cells
Conditions: Homo sapiens, PC-3, 72 h; read-out: IC50 inhibiting PC-3
MEASURED ATTRIBUTE: IC50 (µM)

// worked examples, IC50 included
In [3]: df
Out[3]:
                                   molecule  target  observed_result
0  COc1ccc2nc(SCC(=O)Nc3cc(C)ccc3OC)c(C#N)cc2c1 [I2]    PC-3                1
1  N#Cc1cc2cc(Br)ccc2nc1SCC(=O)Nc1ccccc1C(F)(F)F [5t]    PC-3               50
2  Cc1ccc2nc(SCC(=O)Nc3ccccc3C(F)(F)F)c(C#N)cc2c1 [5r]    PC-3               40

(A) COc1ccc2nc(SCC(=O)Nc3ccccc3O)c(C#N)cc2c1 [5k]
(B) COc1ccc2nc(SCC(=O)Nc3ccccn3)c(C#N)cc2c1 [5f]
[ask] Select the item whose IC50 value is smaller, choosing between A and B . Mark your answer with the label of the selected entry.
[reply] B
(B: 10 µM, A: 30 µM)

###

System: PC-3
Test: cells
Set-up: MTS cell viability / proliferation assay of PC-3 prostate cancer cells
Details: Homo sapiens, PC-3, 72 h; read-out: IC50 inhibiting PC-3
MEASURED ATTRIBUTE: IC50 (µM)

Solved cases (7 shown):
                            compound_string  observed_result
0  COc1ccc(C)cc1NC(=O)CSc1nc2ccc(Br)cc2cc1C#N               40
1  COc1ccc(OC)c(NC(=O)CSc2nc3ccc(OC)cc3cc2C#N)c1               10
2   COc1ccc2nc(SCC(=O)Nc3cnccn3)c(C#N)cc2c1               10
3  N#Cc1cc2cc(Cl)ccc2nc1SCC(=O)Nc1ccccc1C(F)(F)F               10
4  COc1ccc2nc(SCC(=O)Nc3ccc(N(C)C)cc3)c(C#N)cc2c1               10
5  CCc1cccc(CC)c1NC(=O)CSc1nc2ccc(OC)cc2cc1C#N               20
6  COc1ccc2nc(SCC(=O)Nc3ccccc3Br)c(C#N)cc2c1               10

(I) COc1ccc2nc(SCC(=O)Nc3ccccc3Cl)c(C#N)cc2c1
(II) COc1ccc2nc(SCC(=O)Nc3cc(C(F)(F)F)ccc3C(F)(F)F)c(C#N)cc2c1
(III) COc1ccc2nc(SCC(=O)Nc3ccccc3OC)c(C#N)cc2c1
[ask] With regard to IC50, arrange the entries in ascending order, please. Returns: the labels arranged in the requested order.
[reply] I, II, III
